B1: H2-Kb / Ed46 (parent complex)
chain 1: AQSVTQPDARVTVSEGASLQLRCKYSYFGTPYLFWYVQYPRQGLQLLLKYYPGDPVVQGVNGFEAEFSKSNSSFHLRKASVHWSDWAVYFCAVGRTGGYKVVFGSGTRLLVSP
chain 2: DSGVVQSPRHIIKEKGGRSVLTCIPISGHSNVVWYQQTLGKELKFLIQHYEKVERDKGFLPSRFSVQQFDDYHSEMNMSALELEDSAMYFCASSPRHSDYTFGSGTRLLVI
chain 3: not shown
chain 4: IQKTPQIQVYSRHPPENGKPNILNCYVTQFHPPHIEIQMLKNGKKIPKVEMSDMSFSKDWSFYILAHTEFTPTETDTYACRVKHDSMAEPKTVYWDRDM
chain 5: SIINFEKL

variants of: B1; assay: % of reporter cells activated (NFAT-GFP), raw; further: test concentration or dose not given here
measure: ratio to parent

**Q:** Would you mind telling me what ratio to parent value was observed for chain 5 S1G ?
**A:** 0.39

**Q:** Would you mind telling me what ratio to parent value was observed for chain 5 L8R ?
**A:** 0.918

**Q:** Would you mind telling me what ratio to parent value was observed for chain 5 L8P ?
**A:** 0.718

**Q:** Would you mind telling me what ratio to parent value was observed for chain 5 E6Y ?
**A:** 0.119

**Q:** Would you mind telling me what ratio to parent value was observed for chain 5 S1L ?
**A:** 0.0092

**Q:** Would you mind telling me what ratio to parent value was observed for chain 5 E6H ?
**A:** 0.25

**Q:** Would you mind telling me what ratio to parent value was observed for chain 5 F5V ?
**A:** 1.05

**Q:** Would you mind telling me what ratio to parent value was observed for chain 5 L8A ?
**A:** 0.861

(A) chain 5 I2L
(B) chain 5 K7A
(C) chain 5 L8V
(D) chain 5 S1W
(E) chain 5 N4I
**Q:** Put the variants in ascending order of ratio to parent. Write the labels out in the order the request specifies.
**A:** E, D, B, C, A
(E: 0.0714, D: 0.151, B: 0.383, C: 0.886, A: 1.38)

(I) chain 5 L8F
(II) chain 5 K7V
**Q:** Between item I and item II , which reported ratio to parent is smaller? State your choice using its label.
**A:** II
(II: 0.353, I: 1.06)

(I) chain 5 S1I
(II) chain 5 N4E
(III) chain 5 L8C
(IV) chain 5 F5C
(V) chain 5 N4A
**Q:** Put the variants in ascending order of ratio to parent. Write the labels out in the order the request specifies.
**A:** V, II, I, III, IV

(P) chain 5 L8S
(Q) chain 5 F5T
(R) chain 5 K7N
**Q:** Put the variants in ascending order of ratio to parent. Write the labels out in the order the request specifies.
**A:** R, P, Q

(1) chain 5 F5A
(2) chain 5 I3A
**Q:** Which has the higher ratio to parent, 1 or 2 ? State your choice using its label.
**A:** 1

(I) chain 5 S1H
(II) chain 5 N4W
**Q:** Which has the higher ratio to parent, I or II ? State your choice using its label.
**A:** I
(I: 0.973, II: 0.0119)

(1) chain 5 I2N
(2) chain 5 I3E
**Q:** Between item 1 and item 2 , which reported ratio to parent is smaller? State your choice using its label.
**A:** 2

(a) chain 5 I2F
(b) chain 5 S1K
(c) chain 5 I3P
**Q:** List these items ordered by ratio to parent, big to small. Write the labels out in the order the request specifies.
**A:** a, c, b
